# experiment notes: growth inhibitors of E. coli tolC mutant, primary screen, strain BW25113 ΔtolC::kan, 384-well (AID 573);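 further: growth measured after 20 h incubation at 37 °C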
# measurement parameters: OD615, screened at 10 µM (by protocol)
Among all 65,000 compounds or so, about 1,400 (2.2%) were called active.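 How the source made its calls: active means growth inhibition at or above a cutoff equal to the mean over every tested compound plus 3 SD (cut at about 60% in these data); inactive means the rest.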 The full list was thinned out, with actives kept by preference.
Output constraint: value belongs to 1.0 for active, 0.0 for inactive

Here are 3 compounds together with their reported answers.
{"columns": ["compound", "qualitative label"],
 "data": [
  ["COc1ccc(CCNC(=O)c2cc3sccc3n2C)cc1OC", 0.0],
  ["Cc1cccc2nc(CNc3ccc(F)cc3)cn12", 0.0],
  ["NC(=O)c1ccccc1NC(=O)c1ccccc1F", 0.0]
]}

Incoming: Could you please tell me the result logged for COc1ccc2c(c1)CCc1c(C(=O)Nc3c(C)n(C)n(-c4ccccc4)c3=O)noc1-2 in this assay?
Outgoing: 0.0

Incoming: Could you please tell me the result logged for CC(=O)c1c(C)n([O-])c2ccccc2[n+]1=O in this assay?
Outgoing: 1.0

Reference for the values: PubChem BioAssay AID573
